# Test system: CD2F1 mice, L1210 leukemia ip, survival T/C
# METHOD DESCRIPTION: NCI In Vivo Anticancer Drug Screen. Data for tumor model L1210 Leukemia (intraperitoneal) in CD2F1 (CDF1) mice
# ASSAY CONTEXT: endpoint: mean survival time; dose: 100.0 mg/kg/injection; schedule: Q01DX009 (ip); vehicle: saline with Tween-80; higher = longer survival
Inconclusive results and toxic doses are left out.
Reported T/C values for the following compounds.

Solved entries (count: 5):
INSERT INTO results (compound, experimental_value) VALUES
  ('CC(C)=CCN1C(=O)c2ccccc2C1=O', '96 % of control'),
  ('OCC(O)C(O)C(OC1OC(CO)C(O)C(O)C1O)C(O)CO (stereo not drawn)', '109 % of control'),
  ('Cc1ccc(C(=O)CCCCl)cc1C', '104 % of control'),
  ('CCCc1cc(OC)ccc1O', '96 % of control'),
  ('CC(C)C1CC2CCC3C(C)(C(=O)O)CCCC3(C)C2CC1CO (stereo not drawn)', '87 % of control');

Which T/C value belongs to COc1ccc(C(=Nc2ccc(C)cc2)c2ccc([N+](=O)[O-])cc2)cc1 ?
94 % of control

Which T/C value belongs to COC(=O)c1ccc([N+](=O)[O-])cc1O ?
105 % of control

----------
# System: CD2F1 mice, L1210 leukemia ip, survival T/C
# METHOD DESCRIPTION: NCI In Vivo Anticancer Drug Screen. Data for tumor model L1210 Leukemia (intraperitoneal) in CD2F1 (CDF1) mice
# ASSAY CONTEXT: endpoint: mean survival time; dose: 200.0 mg/kg/injection; schedule: Q04DX003 (ip); vehicle: saline with Tween-80; higher = longer survival
Inconclusive results and toxic doses are left out.
METRIC NAME: T/C

Solved entries (count: 3):
INSERT INTO measurements (compound, metric_name, experimental_value) VALUES
  ('O=C(CC(=O)Nc1ccccc1)Nc1ccccc1', 'T/C', '100 % of control'),
  ('O=C1Nc2ccc([N+](=O)[O-])c3c(C(=O)O)ccc1c23', 'T/C', '104 % of control'),
  ('Cc1ccc([N+](=O)[O-])cc1NC(=O)SCCOC(=O)COc1ccc(Cl)cc1', 'T/C', '96 % of control');

// map COc1cc(Br)c(CCNC(=O)Cc2cc(OC)c(OC)cc2Br)cc1OC to recorded T/C (system: CD2F1 mice, L1210 leukemia ip, survival T/C)
86 % of control

// map COc1ccc(Cl)c2c1C(=O)C(=O)N2 to recorded T/C (system: CD2F1 mice, L1210 leukemia ip, survival T/C)
98 % of control

// map CC(CC(=O)Nc1ccccc1)C(=O)O (configuration not stated) to recorded T/C (system: CD2F1 mice, L1210 leukemia ip, survival T/C)
101 % of control

// map CC(=O)OC1CC2CCC1(C)C2(C)C (configuration not stated) to recorded T/C (system: CD2F1 mice, L1210 leukemia ip, survival T/C)
95 % of control

// map CCOC(=O)C(CCC(=O)O)NC(=O)OCc1ccccc1 (configuration not stated) to recorded T/C (system: CD2F1 mice, L1210 leukemia ip, survival T/C)
99 % of control

----------
# Tested on: CD2F1 mice, L1210 leukemia ip, survival T/C
# METHOD DESCRIPTION: NCI In Vivo Anticancer Drug Screen. Data for tumor model L1210 Leukemia (intraperitoneal) in CD2F1 (CDF1) mice
# ASSAY CONTEXT: endpoint: mean survival time; dose: 200.0 mg/kg/injection; schedule: Q01DX009 (ip); vehicle: Klucel (hydroxypropylcellulose) (HPC); higher = longer survival
Inconclusive results and toxic doses are left out.
METRIC NAME: T/C

INSERT INTO assay_data (compound, experimental_value) VALUES
  ('CCOC(=O)C1(C(=O)OCC)CCC(O)N1C(=O)Cc1ccccc1[N+](=O)[O-] (centres undefined)', '97 % of control'),
  ('O=C(O)CCCC1CCc2ccccc2C1 (centres undefined)', '102 % of control'),
  ('CC(C)CCCCCc1ccc(OCCOc2ccc(C(=O)Nc3ccc(S(=O)(=O)F)cc3[N+](=O)[O-])cc2)cc1', '92 % of control');

Kindly review the next compound as well.
Which T/C value belongs to O=C(/C=C/c1ccccc1)N/N=C/c1ccccc1Cl ?
105 % of control
